system: THRa homodimer (NR concentration 90 nM); test: PBM binding z-score (relative to random genomic background probes); higher = stronger binding; sequences stand for … in GC…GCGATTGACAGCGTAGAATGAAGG
Classification by PBM binding z-score | ranges: zone 1 (below 0.5), zone 2 (0.5 to below 1), zone 3 (1 or more)

INSERT INTO results (record_sequence, target_system, answer_label) VALUES
  ('CTAACTAGGTCACGAAAGGTCAAAGTCGAATGAC', 'THRa homodimer (NR concentration 90 nM)', 'zone 3'),
  ('CCGAGTAGGTTACGAGGGGGCATTCTGTGCGAAT', 'THRa homodimer (NR concentration 90 nM)', 'zone 2'),
  ('ATCTCTAGGTAAAGTTCATTGAAAGATCGATAGA', 'THRa homodimer (NR concentration 90 nM)', 'zone 1'),
  ('CCGACGGGGGCAAGGTTACCATAACGCACAGCCA', 'THRa homodimer (NR concentration 90 nM)', 'zone 3'),
  ('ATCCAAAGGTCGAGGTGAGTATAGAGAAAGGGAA', 'THRa homodimer (NR concentration 90 nM)', 'zone 3'),
  ('CGAACTAGGTAAAAGGACAGTGAAAGGCGACGTA', 'THRa homodimer (NR concentration 90 nM)', 'zone 1'),
  ('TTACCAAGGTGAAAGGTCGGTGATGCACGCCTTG', 'THRa homodimer (NR concentration 90 nM)', 'zone 1'),
  ('TCTTGTAGGTCAAAGGTTAAGAAAGCCGAAGCCT', 'THRa homodimer (NR concentration 90 nM)', 'zone 1'),
  ('CGTCCAAGGTCCATGCTAGGTCAGTGAAAGCATT', 'THRa homodimer (NR concentration 90 nM)', 'zone 2'),
  ('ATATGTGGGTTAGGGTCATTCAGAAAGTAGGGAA', 'THRa homodimer (NR concentration 90 nM)', 'zone 3'),
  ('CAATCTAGGTCACAGAGGTCAAAGTCCGTGCGTA', 'THRa homodimer (NR concentration 90 nM)', 'zone 3'),
  ('GCTGCTAGGTCAGGTTGGTCAACTAACGGGTACG', 'THRa homodimer (NR concentration 90 nM)', 'zone 1'),
  ('ATATCTAGGTAAAAGTTCAGTGAATCCCGAGGAT', 'THRa homodimer (NR concentration 90 nM)', 'zone 2'),
  ('CCGAGTAGGTTGCGAGGGGGCATTCAGTGCGAAT', 'THRa homodimer (NR concentration 90 nM)', 'zone 2'),
  ('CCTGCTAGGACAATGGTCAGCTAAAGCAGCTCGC', 'THRa homodimer (NR concentration 90 nM)', 'zone 1'),
  ('CGTCCAAGGTCATAAGAGGTCAGTGAAGACAGAT', 'THRa homodimer (NR concentration 90 nM)', 'zone 3'),
  ('ATATGTAGGTGAGGGTCATTCAGAAAGTAGGGAA', 'THRa homodimer (NR concentration 90 nM)', 'zone 3'),
  ('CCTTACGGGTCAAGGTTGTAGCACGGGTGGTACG', 'THRa homodimer (NR concentration 90 nM)', 'zone 1'),
  ('CGAACTAGGTCAAAGGACAGTGAAAGGCGACGTA', 'THRa homodimer (NR concentration 90 nM)', 'zone 1'),
  ('CTATGTAGGTTAAGGGGGTCATTAAGTTTGAAAG', 'THRa homodimer (NR concentration 90 nM)', 'zone 3'),
  ('CCGAGTAGGTTACGAGGGAGCATTCAGTGCGAAT', 'THRa homodimer (NR concentration 90 nM)', 'zone 1'),
  ('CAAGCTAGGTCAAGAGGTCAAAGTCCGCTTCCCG', 'THRa homodimer (NR concentration 90 nM)', 'zone 3'),
  ('CCTACTGGGCCATTCAGAGGTCATTGTTCATATG', 'THRa homodimer (NR concentration 90 nM)', 'zone 3'),
  ('AGTCAAAGTTCAGGACGAGATAACGTAAAGCACG', 'THRa homodimer (NR concentration 90 nM)', 'zone 1'),
  ('TAGCCTCGGTCATTGGGCCAGTATAGTACGCATC', 'THRa homodimer (NR concentration 90 nM)', 'zone 1'),
  ('TGTCAAAGCTCAAAGGTAACGTAAGTATCCACAC', 'THRa homodimer (NR concentration 90 nM)', 'zone 1');

* * *

tested on: LXRa homodimer (NR concentration 270 nM); experiment: PBM binding z-score (relative to random genomic background probes); higher = stronger binding; sequences stand for … in GC…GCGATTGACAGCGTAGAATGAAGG
// rule not met strictly below 0.7 in PBM binding z-score; rule met otherwise

INSERT INTO assay_data (record_sequence, target_system, answer_label) VALUES
  ('CGAACTAAGTCATTGACAGGACAGTGAATAGTAA', 'LXRa homodimer (NR concentration 270 nM)', 'rule not met'),
  ('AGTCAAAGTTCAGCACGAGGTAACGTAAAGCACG', 'LXRa homodimer (NR concentration 270 nM)', 'rule met'),
  ('AGTCAAAGTTCAGGACGAGGTAAAGTAAAGCACG', 'LXRa homodimer (NR concentration 270 nM)', 'rule met'),
  ('CGAACTAGGTCTCCAGGACAGTGAAGAGGTTGGA', 'LXRa homodimer (NR concentration 270 nM)', 'rule not met'),
  ('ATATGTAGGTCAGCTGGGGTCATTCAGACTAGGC', 'LXRa homodimer (NR concentration 270 nM)', 'rule met'),
  ('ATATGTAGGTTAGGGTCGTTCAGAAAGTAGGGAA', 'LXRa homodimer (NR concentration 270 nM)', 'rule met'),
  ('CGAACTAGGTCACCAGGACAGAGAAGAGGTTGGA', 'LXRa homodimer (NR concentration 270 nM)', 'rule not met'),
  ('CCTACTGGGCCACGAAAGGTCCTTGATTCAGTGA', 'LXRa homodimer (NR concentration 270 nM)', 'rule not met'),
  ('TCATATAGGTTAAAGGTGAAAGTCGGTGTGGTAA', 'LXRa homodimer (NR concentration 270 nM)', 'rule met'),
  ('ATCGAAAGGTCGAAGGTCAGTATACCCACCCGAA', 'LXRa homodimer (NR concentration 270 nM)', 'rule met'),
  ('AGTCAAAGTTCTTCTAGGTAACGTAAGATATGCT', 'LXRa homodimer (NR concentration 270 nM)', 'rule not met'),
  ('CAAACTAGGTCAAGGTCAAAGTAGGTTTGTGCCA', 'LXRa homodimer (NR concentration 270 nM)', 'rule met');

* * *

system: FXR:RXRa (NR concentration 270 nM, RXRa partner concentration 90 nM); test: PBM binding z-score (relative to random genomic background probes); higher = stronger binding; sequences stand for … in GC…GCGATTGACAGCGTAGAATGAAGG
Classification by PBM binding z-score | ranges: lo: < 4; mid: ≥ 4 and < 5; hi: ≥ 5

INSERT INTO results (record_sequence, target_system, answer_label) VALUES
  ('CCTAGCAGGCCACGGTCACTCAAGCATTTCGCTT', 'FXR:RXRa (NR concentration 270 nM, RXRa partner concentration 90 nM)', 'lo'),
  ('ACTCGGAGGATAAAGGTCAGAGCTACGCCAGTGA', 'FXR:RXRa (NR concentration 270 nM, RXRa partner concentration 90 nM)', 'lo'),
  ('CCTACTGGGGCAAAGGTCATTGATTCCAATGCTC', 'FXR:RXRa (NR concentration 270 nM, RXRa partner concentration 90 nM)', 'mid'),
  ('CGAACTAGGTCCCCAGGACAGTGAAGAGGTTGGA', 'FXR:RXRa (NR concentration 270 nM, RXRa partner concentration 90 nM)', 'lo'),
  ('CAAAGTAGGTCACCGGAAGGTCAAAGTCCGCATG', 'FXR:RXRa (NR concentration 270 nM, RXRa partner concentration 90 nM)', 'hi'),
  ('CTATGTAGTTTAAGGGGGTCATTCAGTTTGAAAG', 'FXR:RXRa (NR concentration 270 nM, RXRa partner concentration 90 nM)', 'mid'),
  ('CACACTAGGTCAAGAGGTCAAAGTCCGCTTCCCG', 'FXR:RXRa (NR concentration 270 nM, RXRa partner concentration 90 nM)', 'hi'),
  ('CGAACTCGGTCAAAGGACAGTGAAAGGCGACGTA', 'FXR:RXRa (NR concentration 270 nM, RXRa partner concentration 90 nM)', 'lo'),
  ('CTATTTAGGTTAAGGGGGTCATTCAGTTTGAAAG', 'FXR:RXRa (NR concentration 270 nM, RXRa partner concentration 90 nM)', 'mid'),
  ('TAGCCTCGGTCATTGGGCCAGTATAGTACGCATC', 'FXR:RXRa (NR concentration 270 nM, RXRa partner concentration 90 nM)', 'lo'),
  ('CTATGAAGGTTAAGGGGGTCATTCAGTTTGAAAG', 'FXR:RXRa (NR concentration 270 nM, RXRa partner concentration 90 nM)', 'hi'),
  ('ATATGTAGGTTTGGGTCATTCAGAAAGTAGGGAA', 'FXR:RXRa (NR concentration 270 nM, RXRa partner concentration 90 nM)', 'lo'),
  ('CCTAGTTGGTCAGGAGGTCACAAACCGGATATGA', 'FXR:RXRa (NR concentration 270 nM, RXRa partner concentration 90 nM)', 'lo'),
  ('TCATATAGGTCAAAGGTGAAAGTCGGTGTGGTAA', 'FXR:RXRa (NR concentration 270 nM, RXRa partner concentration 90 nM)', 'hi'),
  ('CAAACTAGGTCAAGGTCAAATTCGGTTTGTGCCA', 'FXR:RXRa (NR concentration 270 nM, RXRa partner concentration 90 nM)', 'hi'),
  ('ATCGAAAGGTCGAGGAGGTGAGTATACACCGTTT', 'FXR:RXRa (NR concentration 270 nM, RXRa partner concentration 90 nM)', 'mid'),
  ('CTATGTAGGTGAAGGGGGTCATTCAGTTTGAAAG', 'FXR:RXRa (NR concentration 270 nM, RXRa partner concentration 90 nM)', 'mid'),
  ('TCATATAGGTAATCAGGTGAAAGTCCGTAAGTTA', 'FXR:RXRa (NR concentration 270 nM, RXRa partner concentration 90 nM)', 'lo'),
  ('CGTCCAAGGTCAAGGTCACTGAAAGAGACTCGAA', 'FXR:RXRa (NR concentration 270 nM, RXRa partner concentration 90 nM)', 'hi'),
  ('CGAAGTAGGTCACCAGGACAGTGAAGAGGTTGGA', 'FXR:RXRa (NR concentration 270 nM, RXRa partner concentration 90 nM)', 'lo');
